Origin of measurements: ChEMBL document CHEMBL3297702

Please go through the items and note down their log10cfu.
system: Enterococcus faecalis; experiment: Photodynamic inactivation of Enterococcus faecalis ATCC 29212 assessed as reduction of log10 CFU at 100 uM incubated prior to irradiation with 50 j/cm'2 for 40 secs measured after 24 hrs by agar plating method (reference value: <1 no unit); assay type: functional

Completed entries (count: 3):
| molecule | experimental.system | experimental.value |
| --- | --- | --- |
| C[N+](C)(C)CC1=Cc2cccc3cccc(c23)C1=O.[Cl-] | Enterococcus faecalis | >6 |
| C[N+](C)(CCO)CC1=Cc2cccc3cccc(c23)C1=O.[Cl-] | Enterococcus faecalis | >6 |
| O=C1C(C[n+]2ccccc2)=Cc2cccc3cccc1c23.[Cl-] | Enterococcus faecalis | >6 |

For every listed record, write down its log10cfu.
1. CC(c1ccccc1)[N+](C)(C)CC1=Cc2cccc3cccc(c23)C1=O.[Cl-] (stereo not given)
2. CCCC[N+](C)(C)CC1=Cc2cccc3cccc(c23)C1=O.[Cl-]

Result:
1. >6
2. >6
